# System: E. faecium 569
# EXPERIMENTAL_DETAILS: MIC by microdilution, E. faecium 569
# Type: cell-based, Enterococcus faecium
# CONDITIONS: Enterococcus faecium; E. faecium 569, resistant to cefuroxime, clindamycin, gentamycin, vancomycin, doxycycline; read-out: MIC
# Protocol: Compounds were tested against Gram-positive and Gram-negative bacteria, including sensitive or drug resistant strains from American Type Culture Collection (ATCC), as well as resistant clinical isolates from the culture collection of the Laboratory for Control of Hospital Infections (Sechenov University, Moscow, Russia). […]
MEASUREMENT_LABEL: MIC

Previously resolved entries follow.
* OCCCCn1cc([C+](c2cn(CCCCO)c3ccccc23)c2cn(CCCCO)c3ccccc23)c2ccccc21.[Cl-] | > 64 µg/mL
* OCCn1cc([C+](c2cn(CCO)c3ccccc23)c2cn(CCO)c3ccccc23)c2ccccc21.[Cl-] | > 64 µg/mL

Kindly review the next molecule as well.
// MIC lookup, molecule = OCCCCCCn1cc([C+](c2cn(CCCCCCO)c3ccccc23)c2cn(CCCCCCO)c3ccccc23)c2ccccc21.[Cl-] , result: > 64 µg/mL
